assayedTarget: human ether-à-go-go-related gene (hERG) potassium channel (human, UniProt Q12809)
Sequence (Q12809 whole entry, looked up): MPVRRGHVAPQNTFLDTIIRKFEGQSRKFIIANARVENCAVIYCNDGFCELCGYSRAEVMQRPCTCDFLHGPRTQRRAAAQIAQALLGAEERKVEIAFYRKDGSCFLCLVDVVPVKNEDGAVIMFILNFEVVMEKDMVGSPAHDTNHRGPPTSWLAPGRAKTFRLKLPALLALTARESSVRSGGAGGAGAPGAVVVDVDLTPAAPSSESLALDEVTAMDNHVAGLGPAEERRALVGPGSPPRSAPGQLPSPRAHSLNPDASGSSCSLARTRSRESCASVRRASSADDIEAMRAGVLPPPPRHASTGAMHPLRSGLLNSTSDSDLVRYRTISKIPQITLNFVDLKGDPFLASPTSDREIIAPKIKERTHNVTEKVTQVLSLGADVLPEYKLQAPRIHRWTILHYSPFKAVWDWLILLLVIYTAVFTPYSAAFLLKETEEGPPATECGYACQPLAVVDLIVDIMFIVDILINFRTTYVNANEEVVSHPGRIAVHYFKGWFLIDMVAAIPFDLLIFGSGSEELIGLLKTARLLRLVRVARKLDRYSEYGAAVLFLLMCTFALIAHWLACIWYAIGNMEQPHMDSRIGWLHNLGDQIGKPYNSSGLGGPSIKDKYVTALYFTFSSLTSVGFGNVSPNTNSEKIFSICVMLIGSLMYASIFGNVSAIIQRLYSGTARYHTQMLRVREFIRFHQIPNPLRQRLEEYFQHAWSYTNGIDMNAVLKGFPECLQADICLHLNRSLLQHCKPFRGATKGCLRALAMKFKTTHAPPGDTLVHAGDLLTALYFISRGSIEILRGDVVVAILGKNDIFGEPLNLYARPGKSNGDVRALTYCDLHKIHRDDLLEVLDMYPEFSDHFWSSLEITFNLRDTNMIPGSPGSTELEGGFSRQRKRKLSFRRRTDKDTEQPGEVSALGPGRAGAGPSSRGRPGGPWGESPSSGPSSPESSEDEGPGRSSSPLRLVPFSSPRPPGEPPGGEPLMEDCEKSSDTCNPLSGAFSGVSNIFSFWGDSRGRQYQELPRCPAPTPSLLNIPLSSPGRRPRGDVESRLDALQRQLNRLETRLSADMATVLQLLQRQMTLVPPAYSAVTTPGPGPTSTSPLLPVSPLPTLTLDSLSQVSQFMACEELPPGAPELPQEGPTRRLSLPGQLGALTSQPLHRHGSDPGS
protocolDescription: primary screen, population patch clamp on CHO cells stably expressing hERG; higher = less effect of the substance
In all, about 310,000 compounds went through this assay and about 14,000 (4.5%) showed an effect of 50% or more. The effect is printed as a negative number. This excerpt belongs to a sample that is enriched for strong results.
endpointName: hERG current change (%, negative = inhibition) at 10uM (%)
Reply numerically in %, unit not repeated.

O=C(c1cc(COc2ccc(F)cc2Cl)on1)N1CCCCC1c1cccnc1 (stereo not drawn)	-41.8
C=CCNc1oc(-c2ccco2)nc1S(=O)(=O)c1ccccc1	-4.58

Briefly, hERG current change (%, negative = inhibition) at 10uM measured for CCCNS(=O)(=O)c1ccc(CCC(=O)N2CCN(CC)CC2)cc1 : -1.72

---

assayedTarget: human ether-à-go-go-related gene (hERG) potassium channel (human)
protocolDescription: primary screen, population patch clamp on CHO cells stably expressing hERG; higher = less effect of the substance
Procedure: Briefly, Chinese hamster ovary (CHO) cells stably expressing the hERG channel were dislodged from tissue culture flasks and dispensed into PPC plates. […] During the recording, background leak currents were estimated by a 100 ms step to -80 mV from an initial holding potential of -70 mV and subtracted from the subsequent current measurement. The campaign was conducted in two phases using slight differences in recording protocol. […]
Out of some 310,000 compounds screened, about 14,000 (4.5%) showed an effect of 50% or more. Effects have a minus sign here. The entries come from a sample that favours strong results as a whole.
Measured hERG current change (%, negative = inhibition) at 10uM accompanies every entry in the list below.
In your response, the unit should come after the numeric value.

O=c1cc(-c2ccccc2)[nH]n1-c1nc2ccccc2s1	14.2%
Cc1nn(-c2cc(N3CCNCC3)ccc2[N+](=O)[O-])c(=O)c2ccccc12	-11.4%

Briefly, hERG current change (%, negative = inhibition) at 10uM measured for O=c1c(C=NCc2cccnc2)c(C(F)(F)F)[nH]n1-c1nc2ccccc2s1 : 9.04%

Briefly, hERG current change (%, negative = inhibition) at 10uM measured for Cc1ccc(C2=NNC(C(O)C(O)C(O)CO)S2)cc1 (centres unmarked) : 11.6%

Briefly, hERG current change (%, negative = inhibition) at 10uM measured for O=c1c(C=NCCCO)c(-c2ccccc2)[nH]n1-c1nc2ccccc2s1 : -72.6%

---

assayedTarget: human ether-à-go-go-related gene (hERG) potassium channel (human, UniProt Q12809);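 also: peak tail current of the secondary pulse compared with the same well before compound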
protocolDescription: primary screen, population patch clamp on CHO cells stably expressing hERG; higher = less effect of the substance
Out of some 310,000 compounds screened, about 14,000 (4.5%) showed an effect of 50% or more. The effect is printed as a negative number. This is one part of a sample in which strong results are shown more often than they occur.
# binarize hERG current change (%, negative = inhibition) at 10uM: threshold -30% inclusive, high side fulfilled, low side not fulfilled

These solved cases illustrate the format of a correct answer.
CCOC(=O)N1CCN(C(=O)/C=C/c2ccc(OC)cc2)CC1	fulfilled
Cc1ccc(-c2csc(NC(=O)CN3CCC(C(N)=O)CC3)n2)cc1	fulfilled
O=C(Cn1ncc2c3ccccc3n(Cc3ccccc3)c2c1=O)NCCCN1CCCC1	not fulfilled
CN1CCN(C(=O)/C=C/c2ccc(Cl)cc2)CC1	not fulfilled
CC1CCCC(NC(=O)COC(=O)CN2C(=O)C3CCCCC3C2=O)C1C (stereo not shown)	fulfilled
CN1CCN(C(=O)/C=C/c2ccc(C#N)cc2)CC1	not fulfilled
CN1CCN(C(=O)/C=C\c2ccc(Cl)cc2)CC1	not fulfilled
CCOC(=O)N1CCN(C(=O)/C=C/c2ccc(C(C)(C)C)cc2)CC1	fulfilled
Cc1ccc(C)c(Cn2c3ccccc3c3cnn(CC(=O)NCCCN4CCCCC4)c(=O)c32)c1	not fulfilled
COc1cccc(C2c3[nH]c4ccccc4c3CCN2Cc2cccn2-c2ncccn2)c1 (stereo not shown)	not fulfilled

Prompt: Hi team, for Cc1cccc(C2c3[nH]c4ccccc4c3CCN2Cc2cccn2-c2ncccn2)c1 (stereo not shown) , is the recorded hERG current change (%, negative = inhibition) at 10uM at or above -30%?
Completion: not fulfilled

Prompt: Hi team, for C/C=C/c1ccc(OCCCCN2C(=O)NC(C)(C)C2=O)c(OC)c1 , is the recorded hERG current change (%, negative = inhibition) at 10uM at or above -30%?
Completion: fulfilled

Prompt: Hi team, for COc1cccc(C2c3[nH]c4ccccc4c3CCN2Cc2cnc(C)s2)c1OC (stereo not shown) , is the recorded hERG current change (%, negative = inhibition) at 10uM at or above -30%?
Completion: fulfilled

Prompt: Hi team, for CC(=O)NCCC(=O)N1CCc2c([nH]c3ccccc23)C1c1cccc(C)c1 (stereo not shown) , is the recorded hERG current change (%, negative = inhibition) at 10uM at or above -30%?
Completion: fulfilled

Prompt: Hi team, for CSc1ncc(CN2CCc3c([nH]c4ccccc34)C2c2cccc(O)c2)cn1 (stereo not shown) , is the recorded hERG current change (%, negative = inhibition) at 10uM at or above -30%?
Completion: fulfilled

---

assayedTarget: human ether-à-go-go-related gene (hERG) potassium channel (human, UniProt Q12809);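 also: peak tail current of the secondary pulse compared with the same well before compound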
protocolDescription: primary screen, population patch clamp on CHO cells stably expressing hERG; higher = less effect of the substance
Hit rate of the full screen: of about 310,000 compounds, about 14,000 (4.5%) showed an effect of 50% or more. Effects have a minus sign here. This is one part of a sample in which strong results are shown more often than they occur.
endpointName: hERG current change (%, negative = inhibition) at 10uM (%)
Reply numerically in %, unit not repeated.

O=C(CSc1nc2cc(C(=O)O)ccc2c(=O)n1-c1ccc(F)cc1)Nc1ccc(F)c(F)c1F	1.54

Briefly, hERG current change (%, negative = inhibition) at 10uM measured for CCOC(=O)C1CCN(C(=O)c2ccc(OC3CCN(C(=O)CCOC)CC3)cc2)CC1 : 8.91

Briefly, hERG current change (%, negative = inhibition) at 10uM measured for COc1ccc(C(C)=O)cc1COC(=O)c1ccc(N)c([N+](=O)[O-])c1 : 35.1

Briefly, hERG current change (%, negative = inhibition) at 10uM measured for CSCC(C)N1CCC(n2nccc2NC(=O)c2ccccc2C)CC1 (centres unmarked) : -16.6

Briefly, hERG current change (%, negative = inhibition) at 10uM measured for C=CCCC(=O)Nc1nc(C)c(-c2csc(Nc3ccccc3OC)n2)s1 : 3.6

Briefly, hERG current change (%, negative = inhibition) at 10uM measured for COc1ccc(OCCCN2CCCCCC2)cc1.O=C(O)C(=O)O : -19.3

Briefly, hERG current change (%, negative = inhibition) at 10uM measured for O=C(Nc1nnc(-c2ccccc2)o1)c1cc(-c2cccs2)nc2ccccc12 : 2.29

---

assayedTarget: human ether-à-go-go-related gene (hERG) potassium channel (human);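 also: peak tail current of the secondary pulse compared with the same well before compound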
protocolDescription: primary screen, population patch clamp on CHO cells stably expressing hERG; higher = less effect of the substance
Screen size: about 310,000 compounds; about 14,000 (4.5%) showed an effect of 50% or more. Effects have a minus sign here. The entries come from a sample that favours strong results as a whole.
endpointName: hERG current change (%, negative = inhibition) at 10uM (%)
Reply numerically in %, unit not repeated.

Some solved entries appear below for comparison.
CCOC(=O)C1=NN(C(=O)c2ccccc2)C(O)(c2ccc(C)cc2)C1 (centres unmarked)	-17.2
COc1cccc(CC2(CO)CCCN(CC3=Cc4cc(Cl)ccc4OC3)C2)c1 (centres unmarked)	-7.49
CCOc1cc2[nH]c(=S)n(CCCN(CC)CC)c(=O)c2cc1OCC	-29.6
O=C(c1cc([N+](=O)[O-])ccc1N1CCOCC1)N1CCN(S(=O)(=O)c2cc(Cl)ccc2Cl)CC1	-32.3
Cc1ccc2oc3nc(C)c(C(=O)Nc4cccc(C(F)(F)F)c4)cc3c(=O)c2c1	6.48

Known value: human ether-à-go-go-related gene (hERG) potassium channel (human) hERG current change (%, negative = inhibition) at 10uM of the compound CCOC(=O)C1=NN(C(=O)c2ccc(OC)cc2)C(O)(c2ccc(Cl)cc2)C1 (centres unmarked) equals -75.5

Known value: human ether-à-go-go-related gene (hERG) potassium channel (human) hERG current change (%, negative = inhibition) at 10uM of the compound O=C(COC(=O)c1cc(=O)c2ccccc2o1)Nc1ccc2ccccc2c1 equals 17.6

Known value: human ether-à-go-go-related gene (hERG) potassium channel (human) hERG current change (%, negative = inhibition) at 10uM of the compound Cc1nnc(-c2ccc(N3CCCCCC3)c([N+](=O)[O-])c2)o1 equals -4.52

---

assayedTarget: human ether-à-go-go-related gene (hERG) potassium channel (human, UniProt Q12809);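 also: peak tail current of the secondary pulse compared with the same well before compound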
protocolDescription: primary screen, population patch clamp on CHO cells stably expressing hERG; higher = less effect of the substance
Protocol: Briefly, Chinese hamster ovary (CHO) cells stably expressing the hERG channel were dislodged from tissue culture flasks and dispensed into PPC plates. […] During the recording, background leak currents were estimated by a 100 ms step to -80 mV from an initial holding potential of -70 mV and subtracted from the subsequent current measurement. The campaign was conducted in two phases using slight differences in recording protocol. […]
The whole screen tested about 310,000 compounds, of which about 14,000 (4.5%) showed an effect of 50% or more. The effect is printed as a negative number. The entries come from a sample that favours strong results as a whole.
Measured hERG current change (%, negative = inhibition) at 10uM accompanies every entry in the list below.
Reply numerically in %, unit not repeated.

Cc1ccc2nc(N3CCN(C(=O)c4ccc(F)cc4)CC3)c(C#N)cc2c1	-73.6
CCN1CCc2c(sc(NC(=S)NC(=O)c3ccco3)c2C(N)=O)C1	2.95
CCN1CCc2c(sc3c2c(NCc2ccco2)nc2nnnn23)C1	-73.6
CC(=O)c1ccc(NC(=O)/C(=C\c2ccco2)NC(=O)c2ccco2)cc1	-15.9
O=C(COC(=O)CNC(=O)c1ccc(Br)o1)Nc1ccccc1OC(F)F	-51.6

Briefly, hERG current change (%, negative = inhibition) at 10uM measured for C=CCn1cc(/C=N\NC(=O)c2cc3c(ccc4ccccc43)o2)c2ccccc21 : -4.85

Briefly, hERG current change (%, negative = inhibition) at 10uM measured for COc1ccc(N(CC(=O)NC2CCCC2)C(=O)c2ccc(C)s2)cc1OC : 15.8

Briefly, hERG current change (%, negative = inhibition) at 10uM measured for Cc1ccc(C(=O)N2CCCN(c3nc4cc5c(cc4cc3C#N)OCO5)CC2)cc1 : -0.619

Briefly, hERG current change (%, negative = inhibition) at 10uM measured for COc1ccc(C(=O)Nc2ccc(N3CCOCC3)cc2)cc1S(=O)(=O)NC1CCCC1 : 13.1

Briefly, hERG current change (%, negative = inhibition) at 10uM measured for O=C(Nc1cccc(F)c1)/C(=C\c1cccnc1)NC(=O)c1ccco1 : -22.4

Briefly, hERG current change (%, negative = inhibition) at 10uM measured for COc1ccc(C(=O)N2CCN(c3ccc(F)cc3)CC2)cc1S(=O)(=O)NC1CC1 : -59.2

Briefly, hERG current change (%, negative = inhibition) at 10uM measured for Cc1ccc(NC(=O)/C(=C/c2cccc(Br)c2)NC(=O)c2ccco2)cc1 : -28.1
